experiment: Cmax in NMRI mouse at 3 mg/kg, ip; assay type: ADME, organism-based; set-up: dose 3 mg/kg, route intraperitoneal; conditions: in vivo
endpoint: Cmax (ng/mL)
Give bare numbers, in ng/mL.

Below are some molecules; for each one, tell me its Cmax.
1. c1ccc(N2CCN(CCCCCCN3CCN(c4ccccc4)CC3)CC2)cc1
2. Cc1cccc(N2CCN(CCCCCCN3CCN(c4ccccc4)CC3)CC2)n1
3. Cc1cccc(N2CCN(CCCCCCN3CCN(c4cccc(C)n4)CC3)CC2)c1
4. c1ccc(N2CCN(CCCCCCN3CCN(c4ccccn4)CC3)CC2)cc1
5. Cc1cccc(N2CCN(CCCCNC(=O)c3cc4ccccc4o3)CC2)c1
6. Cc1cccc(N2CCN(CCCCCCN3CCN(c4ccccc4)CC3)CC2)c1
7. c1ccc(N2CCN(CCCCCCN3CCN(c4ccccn4)CC3)CC2)nc1

71
121
58
50
155
41
26

----------
Reported log10 Ki, 5-hydroxytryptamine receptor 2A (Rattus norvegicus).
# values: log10(Ki), units nM

Illustrative cases are given below, each with its answer.
c1ccc(N2CCN(CCCCCCN3CCN(c4ccccn4)CC3)CC2)cc1: 1.59
COc1cccc(N2CCN(CCCCCCN3CCN(c4cccc(Cl)c4)CC3)CC2)c1: 0.85
Clc1cccc(N2CCN(CCCCCCN3CCN(c4cccc(Cl)c4)CC3)CC2)c1: 1.99
c1ccc(N2CCN(CCCCCCN3CCN(c4ccccc4)CC3)CC2)cc1: 1.49
Cc1cccc(N2CCN(CCCCCCN3CCN(c4ccccn4)CC3)CC2)c1: 1.00

Below is a list of molecules. For each, state its recorded log10 Ki.
1. Cc1cccc(N2CCN(CCCCCCN3CCN(c4cccc(C)c4)CC3)CC2)c1
2. COc1cccc(N2CCN(CCCCCCN3CCN(c4cccc(OC)c4)CC3)CC2)c1

1: 1.30; 2: 1.45

----------
test: Partition coefficient, log P of the compound; format: physicochemical; details: octanol/water
logP below 4 gives FALSE; logP at or above it gives TRUE.

Check out these entries, answers already filled in.
COc1cccc(N2CCN(CCCCCCN3CCN(c4cccc(OC)c4)CC3)CC2)c1: TRUE
c1ccc(N2CCN(CCCCCCN3CCN(c4ccccn4)CC3)CC2)cc1: FALSE
COc1cccc(N2CCN(CCCCCCN3CCN(c4cccc(Cl)c4)CC3)CC2)c1: TRUE
c1ccc(N2CCN(CCCCCCN3CCN(c4ccccn4)CC3)CC2)nc1: FALSE
Cc1cccc(N2CCN(CCCCCCN3CCN(c4ccccc4)CC3)CC2)c1: TRUE
Cc1cccc(N2CCN(CCCCCCN3CCN(c4cccc(C)c4)CC3)CC2)c1: TRUE

Record Cc1cccc(N2CCN(CCCCCCN3CCN(c4ccnc5ccccc45)CC3)CC2)c1 ; criterion: logP no lower than 4. Met?
TRUE

State whether the measured logP reaches 4, counting equality as reaching it, for Cc1cccc(N2CCN(CCCCCCN3CCN(c4cccc(C)n4)CC3)CC2)c1
TRUE

Form field: logP at least 4? Entry: Cc1cccc(N2CCN(CCCCCCN3CCN(c4ccccn4)CC3)CC2)c1
TRUE

Does the compound Clc1cccc(N2CCN(CCCCCCN3CCN(c4cccc(Cl)c4)CC3)CC2)c1 have recorded logP that is 4 or more?
TRUE

Form field: logP at least 4? Entry: c1ccc(N2CCN(CCCCCCN3CCN(c4ccnc5ccccc45)CC3)CC2)cc1
TRUE

Please indicate if the recorded logP for c1ccc(N2CCN(CCCCCCN3CCN(c4ccccc4)CC3)CC2)cc1 meets or exceeds 4.
FALSE
